Source of measurements: ChEMBL document CHEMBL1147007

experiment: Clearance in rat at 0.5 mg/kg, iv; type: ADME, organism-based; parameters: dose 0.5 mg/kg, route intravenous; conditions: in vivo
experimental_readout: clearance (mL/min/kg)
Hi! Could you send only the number? It should be in mL/min/kg, unit omitted.

structure_smiles	quantity_unit	clearance
c1ccc2c(Nc3nc(CN(CC4CCCCC4)CC4CCCCC4)cs3)cccc2c1	mL/min/kg	17.8

Now for a further compound.
So what does the record say about clearance for "Cc1csc(Nc2cccc3ccccc23)n1" ? 70

---

assay: Oral bioavailability in rat at 2 mg/kg, po; assay type: ADME, organism-based; conditions: in vivo
experimental_readout: bioavailability (%)
Hi! Could you send only the number? It should be in %, unit omitted.

structure_smiles	quantity_unit	recorded_result
Cc1csc(Nc2cccc3ccccc23)n1	%	2

So what does the record say about bioavailability for "c1ccc2c(Nc3nc(CN(CC4CCCCC4)CC4CCCCC4)cs3)cccc2c1" ? 63

---

molecular target: C-C chemokine receptor type 4 (Homo sapiens); experiment: Displacement of [125I]TARC from CCR4 expressed in human CEM cell line; format: cell-based, CCRF-CEM
Parameter IC50: see the listing below.
Hi! Could you send only the number? It should be in nM, unit omitted.

structure_smiles	experimental_system	IC50 (nM)
Cc1cccc(Nc2cc(CN(Cc3ccccc3C(F)(F)F)CC3CCCCC3)nn2C)c1C	C-C chemokine receptor type 4 (Homo sapiens)	370
Cc1csc(Nc2cccc3ccccc23)n1	C-C chemokine receptor type 4 (Homo sapiens)	1700

So what does the record say about IC50 for "CCn1ccc2c(Nc3nc(C(C)(C)C)cs3)cccc21" ? 210

So what does the record say about IC50 for "CC(C)c1csc(Nc2cccc3ccccc23)n1" ? 170

So what does the record say about IC50 for "CC(C)(C)c1csc(Nc2cccc3ccccc23)n1" ? 80

So what does the record say about IC50 for "Cc1cccc(Nc2nc(C(C)(C)C)cs2)c1" ? 2000

So what does the record say about IC50 for "CC(C)(C)Cc1csc(Nc2cccc3ccccc23)n1" ? 220

So what does the record say about IC50 for "c1ccc2c(Nc3nc(CN(CC4CCCCC4)CC4CCCCC4)cs3)cccc2c1" ? 18

So what does the record say about IC50 for "Cn1ccc2c(Nc3nc(C(C)(C)C)cs3)cccc21" ? 37

So what does the record say about IC50 for "CC(C)(C)c1csc(Nc2cccc3[nH]ccc23)n1" ? 490

So what does the record say about IC50 for "CC(C)(C)c1csc(Nc2ccccc2)n1" ? 4500

So what does the record say about IC50 for "CC(C)(C)c1csc(Nc2cccc3ncccc23)n1" ? 300

So what does the record say about IC50 for "CC(C)c1ccccc1Nc1nc(C(C)(C)C)cs1" ? 440

So what does the record say about IC50 for "Cc1cccc(Nc2cccc(CN(Cc3ccccc3C(F)(F)F)CC3CCCCC3)n2)c1C" ? 340

---

assay: Terminal half life in rat at 0.5 mg/kg, iv; format: ADME, organism-based; parameters: dose 0.5 mg/kg, route intravenous; conditions: in vivo
experimental_readout: half-life (h)
Hi! Could you send only the number? It should be in h, unit omitted.

structure_smiles	experimental_readout	recorded_result
Cc1csc(Nc2cccc3ccccc23)n1	half-life	0.4

So what does the record say about half-life for "c1ccc2c(Nc3nc(CN(CC4CCCCC4)CC4CCCCC4)cs3)cccc2c1" ? 3.6

---

Parameter pIC50: see the listing below.
Molecular target: C-C chemokine receptor type 4 (Homo sapiens)
Sequence (P51679 whole entry): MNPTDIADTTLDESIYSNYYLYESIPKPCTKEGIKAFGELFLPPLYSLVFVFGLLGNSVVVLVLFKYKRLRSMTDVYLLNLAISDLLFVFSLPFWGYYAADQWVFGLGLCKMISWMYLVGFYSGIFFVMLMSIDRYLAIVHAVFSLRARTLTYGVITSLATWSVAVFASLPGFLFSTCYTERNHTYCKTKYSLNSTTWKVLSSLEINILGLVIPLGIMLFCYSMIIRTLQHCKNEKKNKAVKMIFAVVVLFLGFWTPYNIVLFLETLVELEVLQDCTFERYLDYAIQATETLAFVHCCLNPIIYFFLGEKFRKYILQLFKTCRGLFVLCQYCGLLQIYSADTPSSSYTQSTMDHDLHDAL
Assay: Displacement of [125I]MDC from CCR4 expressed in human CEM cell line
Assay type: cell-based, CCRF-CEM
pIC50 is a log-scale quantity: -log10 of the concentration expressed in molar.

structure_smiles	pIC50
c1ccc2c(Nc3nc(CN(CC4CCCCC4)CC4CCCCC4)cs3)cccc2c1	7.51

Now for a further compound.
So what does the record say about pIC50 for "Cc1csc(Nc2cccc3ccccc23)n1" ? 5.52

---

target: C-C chemokine receptor type 4 (Homo sapiens, UniProt P51679); assay: Displacement of [125I]TARC from CCR4 expressed in human CEM cell line; format: cell-based, CCRF-CEM
Parameter pIC50: see the listing below.
pIC50 is a log-scale quantity: -log10 of the concentration expressed in molar.

Known results for molecules:
structure_smiles	experimental_readout	recorded_result
Cc1ccccc1Nc1nc(C(C)(C)C)cs1	pIC50	6.05
CCNCc1csc(Nc2cccc3ccccc23)n1	pIC50	6.00
CC(C)(C)c1csc(Nc2cccc3c2CCCC3)n1	pIC50	6.68
Cc1cccc(Nc2cc(CN(Cc3ccccc3C(F)(F)F)CC3CCCCC3)no2)c1C	pIC50	4.92
CC(C)(C)c1ccc(-c2csc(Nc3cccc4ccccc34)n2)cc1	pIC50	6.05

Now for a further molecule.
So what does the record say about pIC50 for "CCN(CC)Cc1csc(Nc2cccc3ccccc23)n1" ? 6.10

---

Target: C-C chemokine receptor type 4 (Homo sapiens)
Sequence (P51679 whole entry): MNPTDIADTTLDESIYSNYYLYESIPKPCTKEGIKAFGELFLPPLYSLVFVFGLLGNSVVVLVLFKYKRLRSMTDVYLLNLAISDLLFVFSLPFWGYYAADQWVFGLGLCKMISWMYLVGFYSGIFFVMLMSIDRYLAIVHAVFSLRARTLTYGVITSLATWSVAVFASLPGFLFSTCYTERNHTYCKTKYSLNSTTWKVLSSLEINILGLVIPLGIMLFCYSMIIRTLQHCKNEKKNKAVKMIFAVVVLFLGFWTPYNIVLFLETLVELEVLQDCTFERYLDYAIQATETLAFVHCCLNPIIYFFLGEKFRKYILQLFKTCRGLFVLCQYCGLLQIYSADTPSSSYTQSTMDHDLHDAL
Test: Displacement of [125I]TARC from CCR4 expressed in human CEM cell line
Type: cell-based, CCRF-CEM
Label t when IC50 is strictly below 80 nM; otherwise label f.

Worked cases, answers included:
structure_smiles	class_assignment
CC(C)c1csc(Cc2cccc3ccccc23)n1	f
NCc1csc(Nc2cccc3ccccc23)n1	f
Cc1cccc(Nc2cc(CN(Cc3ccccc3C(F)(F)F)CC3CCCCC3)n[nH]2)c1C	f
CC(C)(C)c1ccnc(Nc2cccc3ccccc23)n1	f
Cc1cccc(Nc2nc(C(C)(C)C)cs2)c1C	f

Decide: IC50 of "CC(C)CN(Cc1csc(Nc2cccc3ccccc23)n1)CC(C)C" strictly below 80 nM? t

Decide: IC50 of "c1ccc(-c2csc(Nc3cccc4ccccc34)n2)cc1" strictly below 80 nM? f

Decide: IC50 of "CC(C)(C)c1csc(Nc2cccc3cnccc23)n1" strictly below 80 nM? f

Decide: IC50 of "FC(F)(F)c1ccccc1CN(Cc1csc(Nc2cccc3ccccc23)n1)CC1CCCCC1" strictly below 80 nM? t

Decide: IC50 of "CC(C)(C)c1csc(Nc2cccc3cccnc23)n1" strictly below 80 nM? f

Decide: IC50 of "Cc1csc(N(C)c2cccc3ccccc23)n1" strictly below 80 nM? f
